METHOD: Induction of mitophagy in human HeLa MKYP cells treated at 6.3 uM with FCCP/oligomycin for 6 hrs and measured by FACS analysis relative to control
Type: functional
ASSAY_READOUT: Activity
Be sure to follow the number with its unit.

Exercise: Form field: reported Activity of CCCCNc1ncnc2[nH]c(-c3ccccc3)cc12
Key: 52%

Exercise: Form field: reported Activity of FC(F)(F)c1cc2c(NC3COc4ccccc43)ncnc2[nH]1 (stereo unspecified)
Key: 52.5%

Exercise: Form field: reported Activity of COc1ccc2c(c1)CCCC2Nc1ncnc2[nH]c(C(F)(F)F)cc12 (stereo unspecified)
Key: 29.8%

Exercise: Form field: reported Activity of FC(F)(F)c1cc2c(NC3(c4ccccc4)CC3)ncnc2[nH]1
Key: 20.8%

Exercise: Form field: reported Activity of CCCCNc1ncnc2[nH]c(C(F)(F)F)cc12
Key: 42.3%

Exercise: Form field: reported Activity of CCCCNc1ncnc2[nH]c(CC(F)(F)F)cc12
Key: 13.9%

Origin of values: ChEMBL document CHEMBL5050850
